Would you kindly list IC50 for each of these molecules?
- Measured target: CCR2 (Homo sapiens)
- Sequence (P41597 whole entry, species assumed): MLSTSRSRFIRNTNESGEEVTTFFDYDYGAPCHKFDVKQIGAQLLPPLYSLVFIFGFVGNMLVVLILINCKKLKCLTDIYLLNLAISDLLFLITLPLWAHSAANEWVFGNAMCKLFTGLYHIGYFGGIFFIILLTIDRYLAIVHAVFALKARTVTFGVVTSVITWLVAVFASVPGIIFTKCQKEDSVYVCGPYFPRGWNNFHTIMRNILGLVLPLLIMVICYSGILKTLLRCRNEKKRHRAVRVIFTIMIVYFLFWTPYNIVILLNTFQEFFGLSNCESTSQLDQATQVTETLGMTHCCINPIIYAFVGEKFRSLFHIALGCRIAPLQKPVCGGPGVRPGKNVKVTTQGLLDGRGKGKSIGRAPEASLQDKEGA
- Test protocol: CCR2 calcium activity assay on FLIPR Tetra in HEK-Gqi5 cells stably expressing CCR2
- Experimental: HEK-Gqi5 cells stably expressing CCR2 were cultured in (DMEM high glucose, 10% FBS, 1% PSA, 400 μg/ml geneticin and 50 μg/ml hygromycin. Appropriate positive control chemokines (MCP-1, MIP1A or RANTES) was used as the positive control agonist for screening compound-induced calcium activity assayed on the FLIPR^Tetra. The drug plates were prepared in 384-well microplates using the EP3 and the MuItiPROBE robotic liquid handling systems. Compounds were synthesized and tested for CCR2 activity.
Give just the number in nM; leave the unit off.

// IC50 value for Cn1sc(=O)c2cc(S(=O)(=O)Nc3cc(Cl)ccc3NS(=O)(=O)c3ccc(Cl)c(C(F)(F)F)c3)ccc21 : 240

// IC50 value for Cn1sc(=O)c2cc(S(=O)(=O)Nc3ccccc3NS(=O)(=O)c3ccc(Cl)s3)ccc21 : 513

// IC50 value for Cn1sc(=O)c2cc(S(=O)(=O)Nc3ccccc3NS(=O)(=O)c3cc(C(F)(F)F)cc(C(F)(F)F)c3)ccc21 : 2070

// IC50 value for Cn1sc(=O)c2cc(S(=O)(=O)N[C@@H]3CCCC[C@H]3NS(=O)(=O)c3ccc(Cl)c(C(F)(F)F)c3)ccc21 (relative stereo) : 543

// IC50 value for Cn1sc(=O)c2cc(S(=O)(=O)Nc3cccc4c3OC(F)(F)O4)ccc21 : 1000

// IC50 value for COc1ccc(NS(=O)(=O)c2ccc3c(c2)c(=O)sn3C)c(NS(=O)(=O)c2cccs2)c1 : 1300

// IC50 value for Cn1sc(=O)c2cc(S(=O)(=O)Nc3cc(C#N)ccc3NS(=O)(=O)c3cccs3)ccc21 : 2720

// IC50 value for Cn1sc(=O)c2cc(S(=O)(=O)Nc3cc(Cl)cnc3NS(=O)(=O)c3cccs3)ccc21 : 1010

// IC50 value for Cn1sc(=O)c2cc(S(=O)(=O)Nc3cc(Cl)ccc3NS(=O)(=O)c3ccc(O)cc3)ccc21 : 491

---

Would you kindly list IC50 for each of these compounds?
- Measured target: CCR2 (Homo sapiens)
- Test protocol: CCR2 calcium activity assay on FLIPR Tetra in HEK-Gqi5 cells stably expressing CCR2
Give just the number in µM; leave the unit off.

// IC50 value for Cn1sc(=O)c2cc(S(=O)(=O)Nc3cc(Cl)ccc3NS(=O)(=O)c3cc(Cl)cc(Cl)c3)ccc21 : 2.6

// IC50 value for CN(C)c1ccc(NS(=O)(=O)c2ccc3c(c2)c(=O)sn3C)c(NS(=O)(=O)c2cccs2)c1 : 1.23

// IC50 value for Cc1cc(NS(=O)(=O)c2ccc3c(c2)c(=O)sn3C)c(NS(=O)(=O)c2cccs2)cc1C : 2.19

// IC50 value for CC(C)c1ccc(S(=O)(=O)Nc2ccc(Cl)cc2NS(=O)(=O)c2ccc3c(c2)c(=O)sn3C)cc1 : 0.985

---

- Measured target: CCR2 (Homo sapiens)
- Construct: expressed in transfected cells
- Test protocol: CCR2 calcium activity assay on FLIPR Tetra in HEK-Gqi5 cells stably expressing CCR2
- Format: cell-based
If the reported CCR2 % ANTAG equals or exceeds 80%, assign Y. If not, assign N.

### Prompt Kindly determine if CCR2 % ANTAG recorded for Cn1sc(=O)c2cc(S(=O)(=O)Nc3cccc(C(F)(F)F)c3)ccc21 is above or exactly 80%.
### Response Y

### Prompt Kindly determine if CCR2 % ANTAG recorded for Cn1sc(=O)c2cc(S(=O)(=O)Nc3ccccc3NS(=O)(=O)c3c[nH]cn3)ccc21 is above or exactly 80%.
### Response N

### Prompt Kindly determine if CCR2 % ANTAG recorded for COc1cccc(S(=O)(=O)Nc2ccc(Cl)cc2NS(=O)(=O)c2ccc3c(c2)c(=O)sn3C)c1 is above or exactly 80%.
### Response Y

### Prompt Kindly determine if CCR2 % ANTAG recorded for Cn1sc(=O)c2cc(S(=O)(=O)Nc3ccccc3NS(=O)(=O)c3ccccc3Cl)ccc21 is above or exactly 80%.
### Response Y

### Prompt Kindly determine if CCR2 % ANTAG recorded for COc1ccc(S(=O)(=O)Nc2cc(Cl)c(Cl)cc2NS(=O)(=O)c2ccc3c(c2)c(=O)sn3C)cc1 is above or exactly 80%.
### Response Y

### Prompt Kindly determine if CCR2 % ANTAG recorded for Cn1sc(=O)c2cc(S(=O)(=O)Nc3cccc4c3Oc3ccccc3O4)ccc21 is above or exactly 80%.
### Response N

### Prompt Kindly determine if CCR2 % ANTAG recorded for Cn1sc(=O)c2cc(S(=O)(=O)Nc3ccccc3NS(=O)(=O)c3cccnc3)ccc21 is above or exactly 80%.
### Response N

### Prompt Kindly determine if CCR2 % ANTAG recorded for Cn1sc(=O)c2cc(S(=O)(=O)Nc3ccccc3NS(=O)(=O)c3ccco3)ccc21 is above or exactly 80%.
### Response Y
